Where do the numbers come from? From the nanobody polyreactivity screen of Harvey et al. (2022).

Assay: yeast display, Sf9 membrane polyspecificity reagent, FACS + sequencing; frameworks hold sequencing errors
MEASUREMENT_NAME: polyreactivity (PSR sort gate)

Please review the following examples before continuing.
SEQUENCE_STRING	MEASUREMENT_NAME	VALUE_OBSERVED
QVQLVESWGGLVQAGGSLRLSCAASGSTFGYYAMGWYRRAPGNEMELVAALSSSSSTNYADSVKGRFTISRDNAMNTVYLQMNRLIPEETAVYYCASDPYWLHWTFDYWGQGSQVTVSS	polyreactivity (PSR sort gate)	low polyreactivity
QVQLVESVGGLVQAGGSLRLSCAASGSTLYQYAMGWYRQAPGKERELVAAITKSGGRTYYADSVKGRFTISRDNAKNTVYLQMNSLKPEDTAVYYCNVVRGSYSSGGDYWGQGTQVTVSS	polyreactivity (PSR sort gate)	high polyreactivity
QVQLVESGGGLVQAGGSLRLSCAASGFTFSYYARGWYRQAPGKERELVAAISINGGRTYYADSVKGRFTISRDNAKNTVYLQMNSLKPEDTAVYYCNAVSYAYTVRMYYWGQVTQVTVSS	polyreactivity (PSR sort gate)	high polyreactivity
QVQLVESGVGLVQAGGSLRLSCAASGSIFQKYTMGWYRQAPGKERQLVAAITRSGGSTYYADSVKGRFTISRDNAKNTVYLQMNSLKAEDSAVYYCNKRYIPWAYDYWGQGTQVTVSS	polyreactivity (PSR sort gate)	high polyreactivity
QVQLVESGGGLVQAGGSLRLSCAASGSIFYRNAMGWYRQAPGKERELVAAISASGGSTYYADSVKGRFTISRDNAKITVYLQMNSLKPEDTAVYYCAVEYRKSRSYAPMGYWGQGTQVTVSS	polyreactivity (PSR sort gate)	high polyreactivity
QVQLVESGGGLVQAGGSLRLSCAASGSIFDPNAMGWYRQAPGKERELLADIDSSDGSTYYADSVKGRFTISRDNAKNTVYLQMNSLKPEDTAVYYCNARYGGWVWSTYDHWGQGTQVTVSS	polyreactivity (PSR sort gate)	low polyreactivity

stdin: Can you share its polyreactivity (PSR sort gate)? I mean this sequence: QVQLVESGGGLVHAGGSLRLSCAASGSTFDVYVMGWYRQAPGKEREMVAAISSGDDTNYADSVKGRFTISRDNAKNTVYLQMNSLKPEDTEVYYCNADYFDYSRPRYDYWGQGTQVTVSS
stdout: low polyreactivity

stdin: Also check QVQLVESGGGLVQAGGSLRLSCAASGLTFRRYTMGWYRQAPGKERECVAAIRTSGGSTSYADSVKGRFTISRDNAKNTVYLQMNSLKPEDTAVYYCAADYGGTSYVRGTVGRKYDYWGQGTQVTVSS
stdout: high polyreactivity

----------
Experiment: yeast display, Sf9 membrane polyspecificity reagent, FACS + sequencing; frameworks hold sequencing errors
MEASUREMENT_NAME: polyreactivity (PSR sort gate)

Example results:
SEQUENCE_STRING	polyreactivity (PSR sort gate)
QVQLVESGGGLVQAGGSLRLSCAASGNTLYSYAMGWYRQAPGKERELVAAITKSGGRTYYADSVKGRFTISRDNAKNTVYLQMNSLKPEDTADYYCNAVFLPTYHFDYWGQGTQVTVSS	high polyreactivity
QVQLVESGGGLVQAGGSLRLSCAASGSTFRSNAMGWYRQAPGKEGELVAAISSRVGTTNYADSVKGRFTISRDNAKNTVYLQMNSLKPEDTAVYYCAAQGWRYYRTVVPMDYWGQGTQVTVSS	low polyreactivity
QVQHVESGAGLVQAAGSLRLSCAASGSTFSSYALGWYRQAPGKERELVAAISHGDSTYYADSVKGRFTISRDNAKNTVYLQMNSLKPEDSAVYYCAALHEVWGVDYWGQGTHVTVSS	low polyreactivity
QVQLVESVGGLVQAGGILRLSCAASGSIFRSYAMGWYRQAPGKERELVAAIRSDGRTNYADSLKGRFTISRDNAKNTVYFPMNRLKPEDTAVYYCAAKAYYSYWRSMDYWGQGTQVTVSS	low polyreactivity
QVQLVESGGGLVQAGGSLRLSCAASGFTFRRYDMGWYRQAPGKERELVATINRGGSTDYADSVKGRFTISRDNAKNTVYLQMNSLKPEDTAVYYCATRYYSSRTWSEYYYWGQGTQVTVSS	high polyreactivity

stdin: For the sequence shown here, QVQLVESGGGLVQAGGSLRLSCAASGFIFGKNDMGWYRQAPGKERELVAAITIGGSTNYADSVKGRFTISRDNAKNTVYLQMNSLTPEDTAVYYCGADATSLYNYWGLGTQVTVSS , give the reported polyreactivity (PSR sort gate).
stdout: low polyreactivity

stdin: Consider next the sequence QVQLVESGGGLVQAGGSLRLSCAASGFTFYLYTMGWYRQAPGKERELVAAISWRGGGTYYADSVKGRFTISRDNAKNTVYLQMNSLKPEDTAVYYCAAYWRRRLDYYYWGQGTQVTVSS in the same way.
stdout: high polyreactivity

stdin: Follow-up item: QVQLVESGGGLVQAGGSLRLSCAASGSTFIYYAMGWYRQAPGKERELVAAISKRGGNTYYADSVKGRFTISRDNAKNTVYLQMNSLKPEDTAVYYCAARVYGTSRRYYSWGQGTQVTVSS
stdout: high polyreactivity

stdin: What do you have for QVQLVESGGGLLQAGGSLRVSCAASGFIFVLYAMGWYRQAPGKERELVAAITWSTGCTYYADSVKGRFTISRDNAKNTVYLHMNSLKPEDTAVYYCSADQYIFGIWFDYWGQGTQVTVSS ?
stdout: high polyreactivity

stdin: And what about the sequence QLQLVESGGGLVQAGGSLRLTCAASGSIFEVKAMGWYRQAPGTERELVATITYSGGSTYYADSVKGRFTISRDNAKKTVYFQMNSLKPEDTAVYYCATHYVVWELYIYDYWGQGTQVTVSS ?
stdout: low polyreactivity

stdin: Request: QVQLVESGGGLVQAGGSLRLSCAASGLTFAPYVMGWYRQAPGKERELVPAISRSGGSTYYADSVKGRFTISRDNAKNTVYLQMNSLKPEDTAVYYCNRDVSLSAFDYWGQGTQVTVSS
stdout: high polyreactivity

----------
Test: yeast display, Sf9 membrane polyspecificity reagent, FACS + sequencing; frameworks hold sequencing errors
MEASUREMENT_NAME: polyreactivity (PSR sort gate)

Example entries begin here.
SEQUENCE_STRING	polyreactivity (PSR sort gate)
QVQLVESGGGLVQAGGSLRLSCAASGSTFAYYAMGWYRQAPGKERELVAAISVSGGRTYYADSVKGRFTISRDNAKNTVYLQMNSLKPEDTAVYYCAKRFIYGRYNYWGQGTQVTVSS	high polyreactivity
QVQLVESGGGLVQAGGSLSLRCAGSGRTFRTYTMGWYRQARGKERELVAAISWSGSSTYYADSVKGRVTISRDHAKNTVYLQLNSLKPEDTAVYYCAARYVSRRFLGYYYWGQGTQVTVSS	high polyreactivity
QLQLVESGGGLVQAGGSLRLSCAASGSIFNIYAMGWYRQAPGKERELVATITGIADYTYYADSVMGRFTISRDNAKNTVYLQMNSLKPEDTAVYYCAADKYVSEYDYWGQGTQVTVSS	low polyreactivity
QVQLVESGGGLVQAGGSLRLSCAASGFTFRRNAMGWYRQAPGKERELVAAITASGGRTYYADSVKGRFTISRDYAKNTVYLQMNSLKPEDTAVFYCAARLRNIYYFRMGYWGQGTKVTVSS	high polyreactivity
QVQLVESGGGLVQAGGSLRLSCAAAGFIFQYNGMGWYRQAPGKERELVAAITSSVNTYYADSVKGRFTISRDNAKNTVYLQMNSLKPEDTAVYYCNADDPDKSWGQGTQVTVSS	low polyreactivity

stdin: // query polyreactivity (PSR sort gate) value for entry QVQLVESGGGLVQAGGSLRLSCAASGFIFKYYAMGWYRQAPGKERELVAAITGSGGRTYYADSVKGRFTISRDNAKNTVYLQMNSLKPEDTAVYYCAADLGGNSRLDYWGQGTQVTVSS
stdout: high polyreactivity

stdin: Subsequent entry: QVQLVESAGGIVQEGGSLRLSCAASGGTFTNYALGWYRQAPGKERELVAAITDSGAHTYYADSVKGRFTISRDNAKNKVYLQMYCLKPEDTAVYYCNAELDLYTDFDYWGQVTQVTVSS
stdout: low polyreactivity

stdin: Another sequence to look at: QVQLVESGGGLVQAGGSLRLSCAASGSILWENAMGWYRQAPGKERELVATISVSGGGTYYADSVKGRFTISRDNAKNTVYLQMNSLKPEDTAVYYCAAPGFPSRNGFGYWGQGTQVTVSS
stdout: low polyreactivity

stdin: And what about the sequence QVQLVESGGGLVQAGGSLRLSCAASGRIFTSYAMGWYRQAPGKERELVAAITSGGRTYYADSVKGRFTISRDNAKNTVYLQKNSLKAEDTAVYYCNAPRYLRYNYCGQGTQVTVSS ?
stdout: high polyreactivity

stdin: Same thing, different sequence: QVQLVESGGGLVQAGGSLRLSCADSGFIFSAHAMGGYSQAPGKDRELVAAISRTGGSTYYADSVKGRFTISRDNAKNTVYLQMNSLKPEETAGYYGAAYIRYGGLAYDSNYWGQGTQVTVSS
stdout: high polyreactivity

stdin: Queued: QVQLVDSGGGLVQEGGSLRLSCAASGLTFYSNAMGWYRQARGKERELVARISTGGSTYADSVKGRFTISRDNAKNTVYLQMNSLKPEVTAVYYCAAEYNLRTYWGDYWGQGTQVTVSS
stdout: low polyreactivity

stdin: Can you handle QVQLVESGVGLVQAGGSLSLSCAASGRIFPVYAMGWYRQAPGKERELVATISYSGSSTYYADSVKGRFTISRDNAKNNVYLLMNSLKPEDTAVYYCNADAFGPQCVQYYYWGQVTQVTVSS next?
stdout: low polyreactivity

stdin: Next: QVQLVESGGGLVQAGGSLRLSCAASGFIFQRYAMGWYRQAPGKESELVAAISSSGGSTYYADSVKGRFTISRDNAKNTVYLQMNSLKPEDTAVNYCAARVPPRTLAYYYWGQGTQVTVSS
stdout: high polyreactivity

stdin: Input QVQLVESGGGLVQAGGSLRLSCAASGSTFYGYAMGWYRQAPGKERELVAAITLIGTSTYYADSVKCRFTISRDNAKNTVYLQMNSLKPEDTAVYYCAAEISYGYGYWGQGTQVTVSS
stdout: low polyreactivity

stdin: Another sequence: QVQLVESGGGLVQAGGSLRLSCAASGYTFKRYAMGWYRQPPGKERELVAAITSRGGNTYYADSVKGRFTISRDNAKNTVYLQMNSLKPEDTAVYYCAVGGWSAYHLSQMYYWGQGTQVTVSS
stdout: high polyreactivity

stdin: And what about the sequence QVQLVESGGGLVQAGGSLRLICAASGLTFDYYDMGWYRQAPGKERELVASITWRGSSTYYADSVKGRFTISRDNAKNTVYLQMISLKPEDTAVYYCAARYRWSEWRPYYYWGQGTQVTVSS ?
stdout: high polyreactivity

stdin: Further, for QVQLVESGGGLVQAGGSLRLSCAASGSTITNYAMGWYRQAPGKERELVAAIRYSGGRTYYADSVKGRFTISRDNANNPGYLQMNSLKPEDTAVYYCAADRASYFTYAYGYWGQGTQVTVSS ?
stdout: high polyreactivity

stdin: Moving on to QVQLVESGGGLVQAGGSLRLSCAASGFTFRIYTMGWYRQAPGKERELVAAIRWSDGTTYYADSVKGRFTISRDNAKNTVYLQMNSLKPEDTAVYYCAAYTYYYYYWGQGTQVTVSS
stdout: high polyreactivity
